# -Log KB values compiled below
- EXPERIMENTAL_TARGET: Histamine H2 receptor (Cavia porcellus)
- ASSAY_TEXT: […] activity tested against histamine H2 receptor on guinea pig atrium
- Assay type: functional, tissue-based
- PROTOCOL_CONDITIONS: Cardiac atrium
# respond with the number and nothing more

Example molecules with recorded -Log KB:
O=C(OCCCc1c[nH]cn1)c1ccccc1I
4.6
Ic1ccc(CCCOCCCc2c[nH]cn2)cc1
5.1
O=C(OCCCc1c[nH]cn1)c1cccc(I)c1
3.8
O=C(Nc1ccc(I)cc1)OCCCc1c[nH]cn1
5.3
O=C(Nc1ccccc1I)OCCCc1c[nH]cn1
4.6
O=C(Cc1ccc(I)cc1)OCCCc1c[nH]cn1
3.6

Challenge: Entry under review: "O=C(NCc1ccc(I)cc1)OCCCc1c[nH]cn1" . Reported -Log KB?
Response given: 4.5

Challenge: Try this molecule too: "O=C(CCCc1ccc(I)cc1)OCCCc1c[nH]cn1"
Response given: 4

Challenge: What about this molecule? "Ic1cccc(COCCCc2c[nH]cn2)c1"
Response given: 5.8

Challenge: How about this molecule: "Nc1c(I)cc(C(=O)OCCCc2c[nH]cn2)cc1I"
Response given: 4.6
